# Tested on: NCI-H23 lung
# runDescription: NCI tumour cell line growth inhibition, 48 h
measurementName: TGI

Known TGI results, listed for orientation:
| molecule | recordedValue |
| --- | --- |
| O=C1OCC2OC(=O)c3cc(O)c(O)c(O)c3-c3c(O)c(O)c(O)c4c3C(=O)OC(C2OC(=O)c2cc(O)c(O)c(O)c2-c2c1cc(O)c(O)c2O)C1OC(=O)c2c-4c(O)c(O)c(O)c2[C@@H]1C(O)C(O)C(O)C(O)CO (some centres undefined) | 43.5 µM |
| COc1cc2c(c(OC)c1)/C(=C/Sc1ccccc1)C(=O)N(C(C)(C)C)C2 | 77.1 µM |
| COC(=O)c1onc(-c2c(OC)cc(OC)cc2OC)c1C(=O)OC | > 100 µM |
| CN1CCN(C(=O)c2cc(-c3ccc4ncnc(N5CCc6cc(F)c(Cl)cc65)c4c3)cnc2N)CC1 | 5.66 µM |

Here's the next entry for you.
Prompt line: What does the data say about its TGI? Entry: C=CCN1C(=O)/C(=C/c2cccs2)N=C1SC/C=C/C
Response line: > 100 µM

---

Below, each entry is listed with its recorded TGI.
# Tested on: ACHN renal
# runDescription: NCI tumour cell line growth inhibition, 48 h

Known TGI results, listed for orientation:
| smi | measuredOn | TGI |
| --- | --- | --- |
| NC(N)=NCC[C@H](NC(=O)OCCCCCn1ccc(=O)[nH]c1=O)C(=O)O | ACHN renal | > 100 µM |
| O=C(OCc1ccc2ccccc2n1)c1cn(C2CC2)c2cc(N3CCN(Cc4ccc5ccccc5n4)CC3)c(F)cc2c1=O | ACHN renal | > 100 µM |

Here's the next entry for you.
Prompt line: What does the data say about its TGI? Entry: O=C(O)c1ccc(C(=O)c2ccccc2)c(C(=O)O)c1
Response line: > 100 µM

---

# System: SF-268 CNS
# runDescription: NCI tumour cell line growth inhibition, 48 h
Where a SMILES comes first, the peptide text is derived from it. [ ]: non-standard residue; d: D form. The star is where a group is joined. NMeV = CN[C@H](C(=O)O)C(C)C; X29 = COc1ccc(CN*)c(OC)c1; Octanoyl = CCCCCCCC(=O)*; dNMeA = CN[C@H](C)C(=O)O
measurementName: TGI

Known TGI results, listed for orientation:
| compound | TGI |
| --- | --- |
| CCCCCCCC(=O)N[C@H](C(=O)N[C@H](C(=O)N(C)[C@H](C(=O)N1CCC[C@H]1C(=O)N(C)[C@H](C)C(=O)NCc1ccc(OC)cc1OC)C(C)C)C(C)C)C(C)C (Octanoyl-VV[NMeV]P[dNMeA]-X29) | > 100 µM |
| COc1ccccc1-c1cc(=O)c2cc(C)cnc2[nH]1 | > 100 µM |

Prompt line: # get_value(readout= TGI, system= SF-268 CNS) for N#CC(C#N)=C1NC(=O)CC(=O)N1
Response line: > 100 µM

Prompt line: Can you check O=[N+]([O-])c1nccn1CCCNc1ccnc2cc(Cl)ccc12 next?
Response line: > 65.6 µM

Prompt line: Can you check COC(=O)[C@@H]1CC(C(C[N+](=O)[O-])c2ccc(O[Si](C)(C)C(C)(C)C)cc2)C(=O)N1C(=O)OC(C)(C)C (stereo partly drawn) next?
Response line: > 100 µM

Prompt line: Can you check CC1=NN(C(=O)c2ccncc2)C(=O)C1 next?
Response line: > 100 µM

Prompt line: Can you check Cc1cc(S(=O)(=O)Nc2nc3ccccc3nc2-c2cccc([N+](=O)[O-])c2)c(S)cc1Cl next?
Response line: 56.2 µM

Prompt line: Can you check CCCP1(=O)C=C(C)C(=C(Cl)Cl)C(C)=C1 (stereo not drawn) next?
Response line: 88.3 µM

Prompt line: Can you check COc1ccc(C(=O)/C=C/c2ccc(O)c(O)c2)c(OC)c1 next?
Response line: > 52.6 µM

Prompt line: Can you check O=[N+]([O-])c1ccc(C=Cc2ccccc2)cc1.[C-]#[O+].[C-]#[O+].[C-]#[O+].[Cr] next?
Response line: > 100 µM

Prompt line: Can you check CS(=O)(=O)c1ccc(-c2cc(-c3ccc(S(C)(=O)=O)cc3)[n+](-c3cc(-c4ccc(S(C)(=O)=O)cc4)c([O-])c(-c4ccc(S(C)(=O)=O)cc4)c3)c(-c3ccc(S(C)(=O)=O)cc3)c2)cc1 next?
Response line: > 100 µM

Prompt line: Can you check COc1c(F)c(F)c(/C(O)=C\c2nc3ccccc3[nH]c2=O)c(F)c1F next?
Response line: > 10 µM

Prompt line: Can you check O=C1c2c(c3c4ccccc4[nH]c3c3ccc4ccccc4c23)C(=O)N1CCN1CCNCC1 next?
Response line: 4.03 µM
